B1: CPEB3 Ribozyme (parent)
chain: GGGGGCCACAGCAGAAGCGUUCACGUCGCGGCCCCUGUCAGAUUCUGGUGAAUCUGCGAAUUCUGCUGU

variants of: B1; experiment: self-cleavage, relative activity (ratio to wild type); higher = more cleavage; co-transcriptional
Reported self-cleavage by item:
The answer should be a number; do not append a unit.

G28C G50C    0.168
C12G G14A    0.127
C33U C45U    0.976
G11C G17A    0.103
G1A U53C    0.0532

Lookup: Item G31C C35G has what recorded self-cleavage?
Found: 0.141

The values you see were collected from the RNAGym collection of RNA variant scans (doi:10.7554/elife.80360).
